Attribution: ChEMBL document CHEMBL5223156

Below is a list of entries, each paired with its recorded IC50 value.
biological target: Protein deacetylase HDAC6 (Homo sapiens); test: Inhibition of human recombinant HDAC6 using fluorogenic substrate measured after 30 mins
Sequence (Q9UBN7 whole entry): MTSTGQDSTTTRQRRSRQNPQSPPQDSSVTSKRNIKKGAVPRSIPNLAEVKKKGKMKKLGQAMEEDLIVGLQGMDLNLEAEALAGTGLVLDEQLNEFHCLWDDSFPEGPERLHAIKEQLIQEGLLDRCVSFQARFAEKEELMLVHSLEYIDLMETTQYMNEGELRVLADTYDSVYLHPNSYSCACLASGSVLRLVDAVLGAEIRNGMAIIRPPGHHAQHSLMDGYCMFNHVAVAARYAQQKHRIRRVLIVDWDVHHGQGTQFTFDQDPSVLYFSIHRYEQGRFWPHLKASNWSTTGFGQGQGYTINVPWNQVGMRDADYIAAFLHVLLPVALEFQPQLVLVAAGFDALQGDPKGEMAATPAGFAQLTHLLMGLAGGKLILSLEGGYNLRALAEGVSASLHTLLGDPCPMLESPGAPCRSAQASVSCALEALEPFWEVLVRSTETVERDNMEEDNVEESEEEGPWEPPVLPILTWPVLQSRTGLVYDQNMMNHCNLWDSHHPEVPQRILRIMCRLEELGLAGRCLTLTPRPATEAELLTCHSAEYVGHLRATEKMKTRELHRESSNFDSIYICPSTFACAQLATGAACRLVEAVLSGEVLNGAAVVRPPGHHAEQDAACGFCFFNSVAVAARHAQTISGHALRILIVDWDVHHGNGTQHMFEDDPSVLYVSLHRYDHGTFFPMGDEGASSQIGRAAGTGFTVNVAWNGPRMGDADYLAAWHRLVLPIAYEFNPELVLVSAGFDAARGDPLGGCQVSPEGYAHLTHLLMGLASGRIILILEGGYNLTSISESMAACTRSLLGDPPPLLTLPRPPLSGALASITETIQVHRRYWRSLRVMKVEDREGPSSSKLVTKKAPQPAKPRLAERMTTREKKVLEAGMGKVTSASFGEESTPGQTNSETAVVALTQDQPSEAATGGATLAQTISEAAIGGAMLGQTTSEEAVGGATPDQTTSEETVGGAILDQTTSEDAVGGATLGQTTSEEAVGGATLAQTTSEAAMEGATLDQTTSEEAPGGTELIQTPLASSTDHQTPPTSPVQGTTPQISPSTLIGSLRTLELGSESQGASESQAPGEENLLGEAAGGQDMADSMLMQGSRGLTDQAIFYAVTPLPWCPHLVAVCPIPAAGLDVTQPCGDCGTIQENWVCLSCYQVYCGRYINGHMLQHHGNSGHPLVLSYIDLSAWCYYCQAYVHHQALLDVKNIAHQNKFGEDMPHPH
# unit: nM | format: bare number

Here's what some known entries look like.
O=C(NO)c1ccc(Cn2cncn2)cc1 :: 91.8
O=C(NO)c1ccc(Cn2ncnc2-c2ccccc2F)cc1 :: 11.8
O=C(NO)c1ccc(Cn2cnc(-c3cccc(Cl)c3)n2)cc1 :: 6.4
COc1cccc(-c2ncn(Cc3ccc(C(=O)NO)cc3)n2)c1 :: 11.5
O=C(NO)c1cccc(Cn2cncn2)c1 :: 11400

Read the next record carefully.
Prompt line: Please provide the recorded IC50 for Cc1cccc(-c2ncn(Cc3ccc(C(=O)NO)cc3)n2)c1 , tested on Protein deacetylase HDAC6 (Homo sapiens).
Response line: 14.7

----------
target: Histone deacetylase 1 (Homo sapiens, UniProt Q13547); test: Inhibition of human recombinant HDAC1 using fluorogenic substrate measured after 30 mins
Sequence (Q13547 whole entry): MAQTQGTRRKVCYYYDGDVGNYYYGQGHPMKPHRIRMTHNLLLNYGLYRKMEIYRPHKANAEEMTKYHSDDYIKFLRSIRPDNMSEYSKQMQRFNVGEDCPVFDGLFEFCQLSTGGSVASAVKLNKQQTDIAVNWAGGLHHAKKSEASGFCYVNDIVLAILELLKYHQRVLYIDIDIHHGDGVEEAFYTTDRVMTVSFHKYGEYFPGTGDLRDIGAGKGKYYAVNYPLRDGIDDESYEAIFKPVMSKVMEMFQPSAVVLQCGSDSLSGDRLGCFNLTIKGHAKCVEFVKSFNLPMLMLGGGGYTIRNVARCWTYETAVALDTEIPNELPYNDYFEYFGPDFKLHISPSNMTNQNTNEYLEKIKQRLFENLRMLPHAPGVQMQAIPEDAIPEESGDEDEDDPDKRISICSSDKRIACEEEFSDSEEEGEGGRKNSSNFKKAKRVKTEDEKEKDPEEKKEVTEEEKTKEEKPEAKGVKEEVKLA
test.readout: pIC50
// scale note: pIC50 = -log10(conc_M); give the bare number

Here's what some known entries look like.
Cc1cccc(-c2ncn(Cc3ccc(C(=O)NO)cc3)n2)c1 :: 6.78
O=C(NO)c1ccc(Cn2cnc(-c3c(F)cccc3F)n2)cc1 :: 6.43
O=C(NO)c1ccc(Cn2cnc(-c3cccc(O)c3)n2)cc1 :: 6.71
O=C(NO)c1ccc(Cn2ncnc2-c2cccs2)cc1 :: 6.37

Read the next record carefully.
Prompt line: Requested read-out: pIC50. Entry: O=C(NO)c1ccc(Cn2cnc(-c3cccnc3)n2)cc1
Response line: 6.45
